Reference for the values: PubChem BioAssay (NCATS)

Listing: max response of selected compounds
biological target: Nuclear receptor subfamily 1 group I member 2 (Rattus norvegicus) (UniProt Q9R1A7); experiment: qHTS assay for small molecule activators of the rat pregnane X receptor (rPXR) signaling pathway (AID 651751); conditions: rPXR reporter cells, luciferase (One-Glo), 24 h; also: 0% is about no effect
Sequence (Q9R1A7 whole entry, looked up): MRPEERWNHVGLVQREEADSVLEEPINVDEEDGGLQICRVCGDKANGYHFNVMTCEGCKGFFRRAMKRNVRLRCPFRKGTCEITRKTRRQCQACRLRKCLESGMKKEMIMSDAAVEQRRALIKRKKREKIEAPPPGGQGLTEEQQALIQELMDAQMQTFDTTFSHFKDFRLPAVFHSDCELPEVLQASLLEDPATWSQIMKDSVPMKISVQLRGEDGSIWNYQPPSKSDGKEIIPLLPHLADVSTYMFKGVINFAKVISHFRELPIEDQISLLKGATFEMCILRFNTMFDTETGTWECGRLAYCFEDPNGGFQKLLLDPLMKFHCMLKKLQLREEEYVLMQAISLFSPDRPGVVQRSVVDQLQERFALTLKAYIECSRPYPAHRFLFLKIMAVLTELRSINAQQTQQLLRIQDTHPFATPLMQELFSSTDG
Calls of active or inactive are those of the source. No rule for the calls is given here.

{"columns": ["compound", "max response"],
 "data": [
  ["CO[Si](CCCNCCC[Si](OC)(OC)OC)(OC)OC", "4.59% (inactive)"],
  ["c1ccsc1", "-1.04% (inactive)"],
  ["FC(F)(F)c1ccccc1Cl", "-1.61% (inactive)"],
  ["O=C(O)CNC(=O)c1ccc([N+](=O)[O-])cc1", "1.39% (inactive)"],
  ["CC(C)Cc1nccs1", "7.57% (inactive)"],
  ["CCNc1cc(O)ccc1C", "-2.12% (inactive)"]
]}

Look up max response for this compound: `Cc1ccccc1C=O`
1.66% (inactive)

Can you handle `Nc1cccc(N)c1` next?
11.3% (inactive)

Can you handle `CC(=O)Nc1ccccc1C` next?
-0.909% (inactive)

Can you handle `NC(=O)CCCCC(N)=O` next?
1.18% (inactive)

Can you handle `O=C(O)c1ccc(Cl)cc1Cl` next?
4.22% (inactive)

Can you handle `O=Cc1ccc(CO)o1` next?
1.25% (inactive)

Can you handle `NC(N)=S` next?
-3.24% (inactive)

Can you handle `C=C(C)C(=O)OCC(C)C` next?
5.41% (inactive)

Can you handle `CNc1ccc([N+](=O)[O-])cc1` next?
8.26% (inactive)

Can you handle `Cc1cc(C)c(N)cc1C` next?
3.48% (inactive)

Can you handle `CCC(C)(C)OC` next?
-4.5% (inactive)

Can you handle `CC(=O)OC(C)C` next?
-1.92% (inactive)

Can you handle `Cc1cc(C(=O)O)ccc1[N+](=O)[O-]` next?
-5.59% (inactive)

Can you handle `CCCCOCCOCCSC#N` next?
-2.98% (inactive)

Can you handle `CC(=O)Nc1ccc(C)cc1` next?
-0.0412% (inactive)

###

assay: qHTS assay for small molecule disruptors of the mitochondrial membrane potential - 5 hr assay (AID 651755); conditions: JC-1-type ratio dye; series mostly up to 92.2 µM; also: % is scaled to controls: 0 for no effect and ±100 for the full control effect; nearly all actives have a fitted effect of over 40% in size
Records with an inconclusive call do not appear. Activity calls are given as the source filed them. Calls follow the shape of the full dose curve.
parameter: outcome

Some solved cases for reference:
{"columns": ["compound", "outcome"],
 "data": [
  ["Cc1ccc2ccccc2c1[N+](=O)[O-]", "inactive"],
  ["CC(C)CO", "inactive"],
  ["CCOC(C)(C)C", "inactive"],
  ["CC(C)C(C)C", "inactive"],
  ["O=Cc1ccccc1Cl", "inactive"],
  ["NC(=O)c1ccccc1[N+](=O)[O-]", "inactive"],
  ["C=Cc1ccccn1", "inactive"],
  ["C=C(C)C(=O)OCC(C)O (stereo not drawn)", "inactive"],
  ["CC(C)(C)OCC1CO1 (stereo not drawn)", "inactive"],
  ["C1CCC2OC2C1 (stereo not drawn)", "inactive"]
]}

Look up outcome for this compound: `Cc1cc(C2(c3cc(C)c(O)cc3C)OS(=O)(=O)c3ccccc32)c(C)cc1O`
inactive

Can you handle `C1COC1` next?
inactive

Can you handle `NC(=S)NNC(N)=S` next?
inactive

Can you handle `O=C1OC(=O)c2c(Br)c(Br)c(Br)c(Br)c21` next?
inactive

Can you handle `CC(=O)Nc1ccccc1C` next?
inactive

Can you handle `CCCCCO` next?
inactive
